procedure-text: Tissue distribution of radioactivity after IV administration in rats bearing Walker 256 sarcoma (Tables 1-4)
Assay type: in vivo, female Sprague Dawley rats
experimental-parameters: rat, kidney; tumor-bearing rats, 6 hours after IV, 125I-labelled, N = 3, mean ± standard error; read-out: Radioactivity in kidney
value-type: tissue uptake at 6 h (%ID/g)

1) COC(COCCCCCCCCCCCCc1cccc([125I])c1)COP(=O)([O-])OCC[N+](C)(C)C (racemic) [ET-12IP-OMe]; 1.31
2) C[N+](C)(C)CCOP(=O)([O-])OCCCOCCCCCCCCCCCCc1cccc([125I])c1 [ET-12IP-H]; 1.77

###

procedure-text: Tissue distribution 24 hours after I.V. administration to rats bearing the Walker-256 carcinosarcoma (Tables 5 and 6)
Assay type: in vivo, Sprague-Dawley rats
experimental-parameters: rat, adrenal, iv, tumor-bearing rats, read-out: Distribution of radioactivity: adrenal
Listed compounds paired with reported tissue uptake at 24 h
# value in %ID/g; strip the unit string

1) COC(COCCCCCCCCCCCCc1cccc([125I])c1)COP(=O)([O-])OCC[N+](C)(C)C (racemic) [ET-12IP-OMe]; 0.436

Now, please, on to the next compound.
Provide tissue uptake at 24 h value for the following compound: C[N+](C)(C)CCOP(=O)([O-])OCCCOCCCCCCCCCCCCc1cccc([125I])c1 [ET-12IP-H] 0.274

###

procedure-text: Tissue distribution of radioactivity after IV administration in normal (control) rats (Tables 1-4)
Type: in vivo, female Sprague Dawley rats
experimental-parameters: rat, muscle, 6 hours after IV, 125I-labelled, N = 3, mean ± standard error, read-out: Radioactivity in muscle
value-type: tissue uptake at 6 h (%ID/g)

[I] COC(COCCCCCCCCCCCCc1cccc([125I])c1)COP(=O)([O-])OCC[N+](C)(C)C (racemic) [ET-12IP-OMe]
[II] C[N+](C)(C)CCOP(=O)([O-])OCCCOCCCCCCCCCCCCc1cccc([125I])c1 [ET-12IP-H]
Min tissue uptake at 6 h? I | II Give the label under which the chosen entry appears. I
(I: 0.023 %ID/g, II: 0.083 %ID/g)

###

procedure-text: Tissue distribution of radioactivity after IV administration in rats bearing Walker 256 sarcoma (Tables 1-4)
Assay type: in vivo, female Sprague Dawley rats
experimental-parameters: rat, kidney; tumor-bearing rats, 24 hours after IV, 125I-labelled, N = 3, mean ± standard error; read-out: Radioactivity in kidney
value-type: tissue uptake at 24 h (%ID/g)
# value in %ID/g; strip the unit string

Provide tissue uptake at 24 h value for the following compound: COC(COCCCCCCCCCCCCc1cccc([125I])c1)COP(=O)([O-])OCC[N+](C)(C)C (racemic) [ET-12IP-OMe] 0.463

###

procedure-text: Tissue distribution of radioactivity after IV administration in rats bearing Walker 256 sarcoma (Tables 1-4)
Assay type: in vivo, female Sprague Dawley rats
experimental-parameters: rat, blood; tumor-bearing rats, 24 hours after IV, 125I-labelled, N = 3, mean ± standard error (Table 4); read-out: Radioactivity in blood
value-type: tissue uptake at 24 h (%ID/g)
# value in %ID/g; strip the unit string

Provide tissue uptake at 24 h value for the following compound: C[N+](C)(C)CCOP(=O)([O-])OCCCOCCCCCCCCCCCCc1cccc([125I])c1 [ET-12IP-H] 0.036
